Target: T1, cynomolgus galectin-10-His, WGS isoform (cynomolgus)
T1 construct: also called cynoGal10-WGS; not shown: His tag
T1 chain: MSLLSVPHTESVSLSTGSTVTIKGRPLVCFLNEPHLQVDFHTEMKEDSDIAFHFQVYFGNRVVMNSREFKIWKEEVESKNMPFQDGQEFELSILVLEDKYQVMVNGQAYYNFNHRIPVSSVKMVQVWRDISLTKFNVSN
Assay: SPR Biacore T3000, mouse IgG1 captured
measurement-label: koff (s⁻¹)
Give the value, in units of s⁻¹, as a plain number.

Which koff value is on record for 10B02 mouse IgG1 (antibody, V domains shown, VH and VL cloned in frame with mouse IgG1 constant domains; also called 10B02 mIgG1) VH: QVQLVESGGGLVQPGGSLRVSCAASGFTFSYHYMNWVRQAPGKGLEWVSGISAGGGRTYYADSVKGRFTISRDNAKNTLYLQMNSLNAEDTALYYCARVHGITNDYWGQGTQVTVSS VL: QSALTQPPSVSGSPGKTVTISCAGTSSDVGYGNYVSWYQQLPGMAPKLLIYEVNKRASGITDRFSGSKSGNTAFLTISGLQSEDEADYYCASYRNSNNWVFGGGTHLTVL ?
0.00042
